Origin of values: patent US7105516B2

Target: human norepinephrine transporters (Homo sapiens, UniProt P23975)
Construct: the text also calls them 'HEK-hNET cells'); membrane homogenates
Sequence (P23975 whole entry): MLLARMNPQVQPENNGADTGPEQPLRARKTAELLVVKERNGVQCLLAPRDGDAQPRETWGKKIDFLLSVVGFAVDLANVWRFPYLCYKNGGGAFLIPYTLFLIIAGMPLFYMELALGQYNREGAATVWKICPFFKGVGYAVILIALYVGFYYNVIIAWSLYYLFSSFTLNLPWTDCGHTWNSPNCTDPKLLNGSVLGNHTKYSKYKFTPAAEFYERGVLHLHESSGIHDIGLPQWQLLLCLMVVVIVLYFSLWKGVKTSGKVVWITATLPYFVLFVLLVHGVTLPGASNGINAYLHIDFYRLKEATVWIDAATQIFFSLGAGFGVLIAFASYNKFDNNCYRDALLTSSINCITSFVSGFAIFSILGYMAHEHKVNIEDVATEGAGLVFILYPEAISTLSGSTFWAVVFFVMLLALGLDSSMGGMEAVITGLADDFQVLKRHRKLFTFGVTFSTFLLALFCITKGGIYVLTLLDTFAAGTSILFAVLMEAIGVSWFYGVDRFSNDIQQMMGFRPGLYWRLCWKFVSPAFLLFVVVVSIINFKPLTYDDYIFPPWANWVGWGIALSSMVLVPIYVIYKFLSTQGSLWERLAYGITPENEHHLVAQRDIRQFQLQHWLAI
Test: Norepinephrine Transporter Binding Assay ([3H]-nisoxetine displacement, hNET cell membranes)
Conditions: 2.7 nM [3H]-nisoxetine, 1 hr at 4° C., read-out: NE reuptake binding Ki
pKi: −log10 of the molar value.
Please go through the items and note down their pKi.

For every item in the list below, what is its measured pKi?
1. CN(C)C[C@@H]1CCC[C@H]1c1c[nH]c2ccc(C#N)cc12 (single isomer, unassigned; enantiomer a) [Example 44]
2. CN(Cc1ccccc1)C[C@H]1CCC[C@@H]1c1ccc2[nH]cc(C#N)c2c1 (relative stereo) [Example 40]
3. CNC[C@@H]1CCC[C@@H]1c1ccc2[nH]cc(C#N)c2c1 (relative stereo) [Example 42]
4. CN(C)C[C@H]1CCC[C@@H]1c1ccc2c(c1)c(C#N)cn2C (relative stereo) [Example 41]

Output line:
1. < 6.00
2. < 6.00
3. 6.30 to 7.00
4. < 6.00
